# EXPERIMENT_DESCRIPTION: Cellular viability qHTS for adrenocortical cancer (ACC) cell line SW-13 (AID 1963989);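 note: cells grown in serum-free medium with ITS supplement; % is set by controls: 0 for no effect and ±100 for the full control effect; nearly all actives have a fitted effect of over 65% in size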
# TEST_CONDITIONS: SW-13 ACC cells viability, CellTiter-Glo, 48 h; hits give low values
Inconclusive results are not listed.
ASSAY_METRIC: activity (max response) (%)
Record the value in %, omitting the unit from your answer.

Examples with answers:
- COMPOUND: "O=C(O)CNC(=O)CNC(=O)CNC(=O)CSC(=O)c1ccccc1"
  ASSAY_METRIC: "activity (max response)"
  RECORDED_RESULT: -23.1
- COMPOUND: "O=C(O)c1cc(=O)[nH]c(=O)[nH]1"
  ASSAY_METRIC: "activity (max response)"
  RECORDED_RESULT: -4.98
- COMPOUND: "Cc1c(N)c(=O)n(-c2ccccc2)n1C"
  ASSAY_METRIC: "activity (max response)"
  RECORDED_RESULT: -4.39
- COMPOUND: "Cc1cc(CCCOc2c(C)cc(-c3noc(C(F)(F)F)n3)cc2C)on1"
  ASSAY_METRIC: "activity (max response)"
  RECORDED_RESULT: -14.2
- COMPOUND: "CC#Cc1cncc(-c2ccc3c(c2)[C@@]2(N=C(C)C(N)=N2)C2(CCC(OC)CC2)C3)c1 (stereo partly specified)"
  ASSAY_METRIC: "activity (max response)"
  RECORDED_RESULT: -4.31
- COMPOUND: "CCCCCCCCOc1ccc(C(=O)c2ccccc2)c(O)c1"
  ASSAY_METRIC: "activity (max response)"
  RECORDED_RESULT: 12.8
- COMPOUND: "Cc1[nH]cnc1-c1ccc(Cl)cc1"
  ASSAY_METRIC: "activity (max response)"
  RECORDED_RESULT: 8.54
- COMPOUND: "COc1cc2nc(N(C)CCCNC(=O)C3CCCO3)nc(N)c2cc1OC (stereo unspecified)"
  ASSAY_METRIC: "activity (max response)"
  RECORDED_RESULT: -10.5
- COMPOUND: "Cc1ccc2c(c1)c1c3n2CCNC3CCC1 (stereo unspecified)"
  ASSAY_METRIC: "activity (max response)"
  RECORDED_RESULT: -5.85
- COMPOUND: "Cc1ccc2cc(-c3c(C)ccc(C(=O)c4c(-c5ccccc5)n(C)n(-c5ccccc5)c4=O)c3N)ccc2n1"
  ASSAY_METRIC: "activity (max response)"
  RECORDED_RESULT: -12.9

*Q* May I ask what activity (max response) has been recorded for `CCCCCC(N)=O` ?
*A* 5.46

*Q* Then `O=c1[nH]cc(F)c(=O)[nH]1` ?
*A* -6.36

*Q* Similarly, `COc1ccc2nc3n[nH]c(C)c3c(NCCOCCO)c2c1` ?
*A* 0.542

Origin of values: PubChem BioAssay (NCATS)
